# TARGET UNDER TEST: OsWRKY34 (Oryza sativa, UniProt Q0JBA9 1-250)
# Sequence (Q0JBA9 entry or part of it): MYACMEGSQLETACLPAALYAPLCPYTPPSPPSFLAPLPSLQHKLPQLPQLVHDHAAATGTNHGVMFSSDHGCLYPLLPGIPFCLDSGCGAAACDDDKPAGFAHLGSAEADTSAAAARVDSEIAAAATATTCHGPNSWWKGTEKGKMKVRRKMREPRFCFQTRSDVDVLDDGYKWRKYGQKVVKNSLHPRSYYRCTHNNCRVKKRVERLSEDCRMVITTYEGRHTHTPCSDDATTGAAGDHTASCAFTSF
# TEST DETAILS: protein-binding microarray (RPBM); PBS, 2% BSA, 51.3 ng/ul salmon testes DNA, 50 uM zinc acetate, 200 nM TF, 25 C, 1 h; high values mean tight binding
# CONDITIONS USED: protein: recombinant; tags: N-terminal polyhistidine and DsRed monomer fusion (pET32a); label: CyDye5-dUTP incorporated in the synthesized complementary strand; 3' TTTTT single-stranded linker to array surface; dsDNA, one strand shown
The full ranking holds about 68,000 sequences; the median of “fluorescence intensity (a.u.)” is about 9,100, and the highest 2% start at about 16,000. Only a selection was taken, and the highest values are over-represented in it overall.
For each record, write down the corresponding binding signal.

## Input Hello, I am looking for reported binding signal with OsWRKY34 (Oryza sativa, UniProt Q0JBA9 1-250) for GTGTGTTGGTTGTCACAGTACTGTGTGGTGGTGGTGGAAGCGGAGTCACCTAGTGCAG . Could you help?
## Output 9220 fluorescence intensity (a.u.)

## Input Input AAATTTTTATATGCTGTGTATTTTCTATTTTTTTTATTTTCGGAGTCACCTAGTGCAG
## Output 11100 fluorescence intensity (a.u.)

## Input Input ATGACATACTAATAGATGATACTATTGACTTTTTTTCTATCGGAGTCACCTAGTGCAG
## Output 9980 fluorescence intensity (a.u.)

## Input Input TGTTTTCTGTTCTTTGTTGACTTTAAGTCGCTAAATTTTGCGGAGTCACCTAGTGCAG
## Output 11500 fluorescence intensity (a.u.)

----------
For each record, write down the corresponding binding signal.
# TARGET UNDER TEST: OsWRKY34 (Oryza sativa, UniProt Q0JBA9 1-250)
# TEST DETAILS: protein-binding microarray (RPBM); PBS, 2% BSA, 51.3 ng/ul salmon testes DNA, 50 uM zinc acetate, 200 nM TF, 25 C, 1 h; high values mean tight binding
# CONDITIONS USED: protein: recombinant; tags: N-terminal polyhistidine and DsRed monomer fusion (pET32a); label: CyDye5-dUTP incorporated in the synthesized complementary strand; 3' TTTTT single-stranded linker to array surface; dsDNA, one strand shown
In all, about 68,000 sequences were measured (“fluorescence intensity (a.u.)”: median about 9,100, highest 2% from about 16,000 on). For the sample, the highest values were picked, then their nearest neighbours and some sequences at random.

## Input Data request, read-out binding signal, for CCATCATCTCTCGATCCATCTCCAGCAAGTTACCTATAAACGGAGTCACCTAGTGCAG
## Output 9580 fluorescence intensity (a.u.)

## Input Input CCACCTCGTTTTATGTAAAACACTTAATCTTCAACTTCAGCGGAGTCACCTAGTGCAG
## Output 8860 fluorescence intensity (a.u.)

## Input Input ATCTCCGGCGTTTTTCAACCGTATGGCAATGATCATCCTTCGGAGTCACCTAGTGCAG
## Output 11100 fluorescence intensity (a.u.)

## Input Input GTGTTGTGGTTTACTGAATTGATGTTTGGCTTAAGTGATGCGGAGTCACCTAGTGCAG
## Output 11800 fluorescence intensity (a.u.)

## Input Input GATTCTAGTCAAATTTCTTTTAATTTTGACTACGTTTATACGGAGTCACCTAGTGCAG
## Output 11200 fluorescence intensity (a.u.)

## Input Input CTACTATACGTCGATGGGGAGGGAGGGAGGGTGGCTGTAGCGGAGTCACCTAGTGCAG
## Output 26400 fluorescence intensity (a.u.)
